- test.target: ADA pseudovirus Env (HIV-1)
- test.name: cell-based or functional assay
reported.endpoint: IC50 (ug/ml), pseudovirus neutralization, TZM-bl assay (µg/mL)
Note: unit µg/mL is implicit; provide only the numeric part.

Solved entries:
1503_H05 (PG16) (antibody, V domains shown) VH: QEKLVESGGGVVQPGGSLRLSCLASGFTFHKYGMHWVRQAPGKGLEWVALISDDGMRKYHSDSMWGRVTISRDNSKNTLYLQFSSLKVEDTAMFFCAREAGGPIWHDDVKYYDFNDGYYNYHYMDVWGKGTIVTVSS VL: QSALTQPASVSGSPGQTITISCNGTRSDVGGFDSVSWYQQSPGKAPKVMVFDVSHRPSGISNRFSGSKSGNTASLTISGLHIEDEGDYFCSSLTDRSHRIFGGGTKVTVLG: 0.003
1469_M23 (PG16) (antibody, V domains shown) VH: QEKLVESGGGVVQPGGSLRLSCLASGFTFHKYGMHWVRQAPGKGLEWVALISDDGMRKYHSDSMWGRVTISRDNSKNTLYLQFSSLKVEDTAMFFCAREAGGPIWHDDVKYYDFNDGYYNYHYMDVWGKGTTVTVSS VL: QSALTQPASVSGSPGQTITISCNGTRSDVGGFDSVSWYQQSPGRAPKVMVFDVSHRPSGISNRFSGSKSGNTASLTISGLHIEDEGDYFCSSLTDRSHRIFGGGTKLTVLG: 0.005

Given the entry 1489_I13 (PG16) (antibody, V domains shown) VH: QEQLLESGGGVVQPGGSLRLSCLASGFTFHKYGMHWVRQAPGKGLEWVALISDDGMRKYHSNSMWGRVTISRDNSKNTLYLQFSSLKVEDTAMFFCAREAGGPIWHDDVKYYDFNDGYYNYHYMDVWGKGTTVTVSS VL: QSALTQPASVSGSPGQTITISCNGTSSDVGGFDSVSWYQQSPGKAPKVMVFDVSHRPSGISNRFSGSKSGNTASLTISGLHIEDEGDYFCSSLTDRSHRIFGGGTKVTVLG , report its measured IC50 (ug/ml), pseudovirus neutralization, TZM-bl assay. 0.008

And 1456_A12 (PG16) (antibody, V domains shown) VH: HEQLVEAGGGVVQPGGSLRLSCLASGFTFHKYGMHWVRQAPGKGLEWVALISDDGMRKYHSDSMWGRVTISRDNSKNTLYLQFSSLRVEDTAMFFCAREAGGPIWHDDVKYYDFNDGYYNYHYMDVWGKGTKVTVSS VL: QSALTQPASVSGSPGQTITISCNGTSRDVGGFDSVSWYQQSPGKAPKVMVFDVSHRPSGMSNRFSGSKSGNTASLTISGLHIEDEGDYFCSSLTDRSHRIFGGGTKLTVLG ? 0.005
